Source of measurements: patent US20230203146A1

- Target: T1, FLAG-tagged cynomolgus Ang2 (cynomolgus, UniProt O15123 19-496 (human entry), limits assumed)
- T1 construct: N-terminally FLAG-tagged, conditioned medium of HEK293T cells; also called cAng2; FLAG-cAng2
- T1 chain: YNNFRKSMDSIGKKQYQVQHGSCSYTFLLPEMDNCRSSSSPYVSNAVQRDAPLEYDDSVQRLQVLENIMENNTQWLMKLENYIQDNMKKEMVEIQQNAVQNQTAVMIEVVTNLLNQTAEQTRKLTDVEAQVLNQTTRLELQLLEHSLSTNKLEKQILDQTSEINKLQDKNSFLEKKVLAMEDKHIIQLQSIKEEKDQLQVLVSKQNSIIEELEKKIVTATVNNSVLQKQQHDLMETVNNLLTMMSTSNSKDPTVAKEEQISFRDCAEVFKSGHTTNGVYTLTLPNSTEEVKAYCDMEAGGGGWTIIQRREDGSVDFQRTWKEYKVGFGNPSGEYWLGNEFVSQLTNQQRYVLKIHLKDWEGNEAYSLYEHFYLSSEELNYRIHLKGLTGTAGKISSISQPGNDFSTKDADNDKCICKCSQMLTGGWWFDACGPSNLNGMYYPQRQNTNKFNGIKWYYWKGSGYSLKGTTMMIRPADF
- Experiment Description: competition ELISA: FLAG-cAng2 binding to coated cTie2-Fc
Observed Property: IC50 (nM)
One number for each entry, in nM.

Binder	Units	IC50
VHH 00049 (VHH, not shown: small tags and cut ends) VHH: EVQLVESGGGLVQPGGSLRLSCAASGFTFDDYALGWFRQAAGKEREGVSCIRCSDGSTYYADSVKGRFTISSDNSKNTVYLQMNSLRPEDTAVYYCAASIVPRSKLEPYEYDAWGQGTLVTVSS	nM	4.5

Exam item: Give the reported IC50 for this binder. VHH 00053 (VHH, not shown: small tags and cut ends) VHH: EVQLVESGGGLVQPGGSLRLSCAASGFTLDDYAIGWFRQAPGKEREGVSSIRDNDGSTYYADSVKGRFTISRDNDKNTVYLQMNSLRPEDTAVYYCAAVPAGRLRFGEQWYPLYEYDAWGQGTLVTVSS
Marked response: 13.8
